Known viability at 4 days, 1 uM of a selection of molecules
Assay: Neurotoxicity assay: MTS viability of primary cortical neuronal cultures
Type: cell-based, mouse
Conditions: BL6Jx129sv, mouse, primary cortical neuronal cultures, Neuronal cells, test compound 1 uM; read-out: Cytotoxicity (% viable at 1 and 10 uM)

{"Molecule": "O=c1c2c(Cl)cc(Cl)c(O)c2ncn1CCN1CCOCC1", "viability at 4 days, 1 uM / %": 98}
{"Molecule": "O/N=C/c1ccc2cccc(O)c2n1", "viability at 4 days, 1 uM / %": 100}
{"Molecule": "Oc1cccc2ccc(CN(CCc3c[nH]cn3)Cc3nccs3)nc12", "viability at 4 days, 1 uM / %": 82}
{"Molecule": "Oc1c(-c2ccc(F)cc2F)cc(Cl)c2cccnc12", "viability at 4 days, 1 uM / %": 90}
{"Molecule": "Oc1c(Br)cc(Br)c2cccnc12", "viability at 4 days, 1 uM / %": 100}
{"Molecule": "O=c1c2c(Cl)cc(Cl)c(O)c2ncn1CCN1CCCC1", "viability at 4 days, 1 uM / %": 104}
{"Molecule": "NCc1ccc2c(Cl)cc(Cl)c(O)c2n1", "viability at 4 days, 1 uM / %": 100}
{"Molecule": "CN(C)Cc1ccc2c(Cl)cc(Cl)c(O)c2n1.Cl [drawing 119]", "viability at 4 days, 1 uM / %": 84}
{"Molecule": "Oc1c(Cl)cc(-c2cccnc2)c2cccnc12", "viability at 4 days, 1 uM / %": 101}
{"Molecule": "Cc1cnc2c(O)c(Cl)cc(Cl)c2n1", "viability at 4 days, 1 uM / %": 94}
{"Molecule": "Oc1c(Br)cc(-c2ccccc2)c2cccnc12", "viability at 4 days, 1 uM / %": 100}
{"Molecule": "Cc1ccccc1-c1cc(Cl)c2cccnc2c1O", "viability at 4 days, 1 uM / %": 100}
{"Molecule": "NCc1ccc2cccc(O)c2n1", "viability at 4 days, 1 uM / %": 101}
{"Molecule": "Oc1ccc(Cl)c2cccnc12", "viability at 4 days, 1 uM / %": 94}
{"Molecule": "Oc1ccc(/C=C/c2ccc3cccc(O)c3n2)cc1", "viability at 4 days, 1 uM / %": 100}
{"Molecule": "Oc1cccc2ccc(-n3cncn3)nc12", "viability at 4 days, 1 uM / %": 102}
{"Molecule": "Br.Cc1cccnc1Cn1cnc2c(O)c(Cl)cc(Cl)c2c1=O", "viability at 4 days, 1 uM / %": 99}
{"Molecule": "O=c1c2c(Cl)cc(Cl)c(O)c2ncn1Nc1ccc(F)cc1F", "viability at 4 days, 1 uM / %": 100}
{"Molecule": "CSc1ccccc1-c1ccc2cccc(O)c2n1", "viability at 4 days, 1 uM / %": 114}
{"Molecule": "Oc1cccc2ccc(-c3ccccn3)nc12", "viability at 4 days, 1 uM / %": 107}
{"Molecule": "Nc1cnc2c(O)c(Cl)cc(Cl)c2c1", "viability at 4 days, 1 uM / %": 94}
{"Molecule": "COc1ccc(-n2cnc3c(O)c(Cl)cc(Cl)c3c2=O)nc1", "viability at 4 days, 1 uM / %": 122}
{"Molecule": "Cn1cnc(CCNC(=O)c2ccc3c(Cl)cc(Cl)c(O)c3n2)c1", "viability at 4 days, 1 uM / %": 93}
{"Molecule": "Oc1c(I)cc(Cl)c2cccnc12", "viability at 4 days, 1 uM / %": 90}
{"Molecule": "COc1c(Cl)cc(Cl)c2c(=O)n(N)cnc12", "viability at 4 days, 1 uM / %": 99}
{"Molecule": "Cc1cnc(-n2cnc3c(O)c(Cl)cc(Cl)c3c2=O)s1", "viability at 4 days, 1 uM / %": 94}
{"Molecule": "O=C(c1ccc2cccc(O)c2n1)N(Cc1ccccn1)Cc1ccccn1", "viability at 4 days, 1 uM / %": 81}
{"Molecule": "CN(CCc1ccccn1)Cc1ccc2cccc(O)c2n1", "viability at 4 days, 1 uM / %": 97}
{"Molecule": "Nc1ccc2cccc(O)c2n1", "viability at 4 days, 1 uM / %": 95}
{"Molecule": "CN(C)Cc1cnc2c(Cl)cc(Cl)c(O)c2n1.Cl", "viability at 4 days, 1 uM / %": 106}
{"Molecule": "Oc1ccc(CCc2ccc3cccc(O)c3n2)cc1", "viability at 4 days, 1 uM / %": 89}
